TARGET ENTITY: UniProt:O96394
TEST: Inhibition of recombinant Leishmania amazonensis arginase expressed in Escherichia coli using L-arginine as substrate
MEASURED PROPERTY: IC50 (µM)

- MOLECULE: "Cc1ccc(-n2ncc3c(NNC(N)=S)ncnc32)cc1"
  MEASURED PROPERTY: "IC50"
  UNITS LABEL: "µM"
  CENSORING QUALIFIER: ">"
  NUMBER: 100
- MOLECULE: "NC(=S)NNc1ncnc2c1cnn2-c1ccc(C(F)(F)F)cc1"
  MEASURED PROPERTY: "IC50"
  UNITS LABEL: "µM"
  CENSORING QUALIFIER: "="
  NUMBER: 47
- MOLECULE: "N#Cc1ccc(-n2ncc3c(NNC(N)=S)ncnc32)cc1"
  MEASURED PROPERTY: "IC50"
  UNITS LABEL: "µM"
  CENSORING QUALIFIER: "="
  NUMBER: 100
- MOLECULE: "NC(=S)NNc1ncnc2c1cnn2-c1ccc(F)cc1"
  MEASURED PROPERTY: "IC50"
  UNITS LABEL: "µM"
  CENSORING QUALIFIER: ">"
  NUMBER: 100
- MOLECULE: "NC(=S)NNc1ncnc2c1cnn2-c1ccc(Cl)cc1"
  MEASURED PROPERTY: "IC50"
  UNITS LABEL: "µM"
  CENSORING QUALIFIER: ">"
  NUMBER: 100
- MOLECULE: "Cc1cc(NNC(N)=S)n2nc(C(F)(F)F)nc2n1"
  MEASURED PROPERTY: "IC50"
  UNITS LABEL: "µM"
  CENSORING QUALIFIER: "="
  NUMBER: 16.5
- MOLECULE: "NC(=S)NNc1ncnc2c1cnn2-c1ccccc1"
  MEASURED PROPERTY: "IC50"
  UNITS LABEL: "µM"
  CENSORING QUALIFIER: "="
  NUMBER: 12

====

TEST: Cytotoxicity against Swiss mouse peritoneal macrophages assessed as reduction in cell viability incubated for 48 hrs by MTT assay
Type: cell-based, Peritoneal macrophage
STUDY CONDITIONS: Swiss, peritoneal macrophages, read-out: LC50
Below, each entry is listed with its recorded CC50 at 48 h.

- MOLECULE: "NC(=S)NNc1ncnc2c1cnn2-c1ccc(F)cc1"
  CC50 at 48 h: "> 200 µM"
- MOLECULE: "NC(=S)NNc1ncnc2c1cnn2-c1ccccc1"
  CC50 at 48 h: "> 200 µM"
- MOLECULE: "Cc1cc(NNC(N)=S)n2nc(C(F)(F)F)nc2n1"
  CC50 at 48 h: "> 200 µM"
- MOLECULE: "NC(=S)NNc1ncnc2c1cnn2-c1ccc(C(F)(F)F)cc1"
  CC50 at 48 h: "> 200 µM"
- MOLECULE: "N=C(N)c1ccc(OCCCCCOc2ccc(C(=N)N)cc2)cc1"
  CC50 at 48 h: "17.2 µM"
- MOLECULE: "NC(=S)NNc1ncnc2c1cnn2-c1ccc(Cl)cc1"
  CC50 at 48 h: "> 200 µM"

====

TARGET ENTITY: Arginase (Leishmania amazonensis, UniProt O96394)
pKi: −log10 of the molar value.

- MOLECULE: "Cc1cc(NNC(N)=S)n2nc(C(F)(F)F)nc2n1"
  pKi: 4.77
